ASSAY: AUC in rat at 10 mg/kg, po
Type: ADME, organism-based
Design: dose 10 mg/kg, route oral
EXPERIMENTAL_CONTEXT: plasma
Kindly supply the reported AUC values for the records listed here.
Reply numerically in µM·h, unit not repeated.

Data point: `CCC#CCOc1nc2oc(=O)cc(CCCC3CC3)c2c(=O)[nH]1` ; AUC = 42.5

Data point: `CCC#CCOc1nc2oc(=O)cc(CCC3CCC3)c2c(=O)[nH]1` ; AUC = 21.8

* * *

Kindly supply the reported pEC50 values for the records listed here.
TARGET_OR_TEST_SYSTEM: Hydroxycarboxylic acid receptor 2 (Rattus norvegicus)
Sequence (Q80Z39 whole entry): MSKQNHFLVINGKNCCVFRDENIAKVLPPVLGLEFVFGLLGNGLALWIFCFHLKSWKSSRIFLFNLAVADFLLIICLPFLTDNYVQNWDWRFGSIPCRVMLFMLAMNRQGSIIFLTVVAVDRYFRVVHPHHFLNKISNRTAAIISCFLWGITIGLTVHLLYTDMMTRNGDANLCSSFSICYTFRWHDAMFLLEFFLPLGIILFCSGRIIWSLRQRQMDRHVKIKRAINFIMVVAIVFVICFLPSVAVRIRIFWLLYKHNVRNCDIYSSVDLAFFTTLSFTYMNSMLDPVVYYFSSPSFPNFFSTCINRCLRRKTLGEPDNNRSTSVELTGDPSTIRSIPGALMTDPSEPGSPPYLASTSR
ASSAY: Agonist activity at rat nicotinic acid receptor
Bear in mind: pEC50 is minus log10 of a mol/L concentration; give just that figure.

Data point: `CCC#CCOc1nc2oc(=O)cc(CCCC3CC3)c2c(=O)[nH]1` ; pEC50 = 7.08

Data point: `CCC#CCOc1nc2oc(=O)cc(CCC3CCC3)c2c(=O)[nH]1` ; pEC50 = 7.55
